Source: ChEMBL document CHEMBL5154690

# testSummary: Cmax in male Sprague-Dawley rat at 5 mg/kg, po measured by LC-MS/MS analysis
# Type: ADME, organism-based
# Set-up: dose 5 mg/kg, route po
# experimentalConditions: in vivo

| compound | resultUnits | Cmax |
| --- | --- | --- |
| CC1Cc2ccc(C(=O)O)cc2Oc2ccc(OCc3c(-c4c(Cl)cccc4Cl)noc3C3CC3)nc21 (centres undefined) | ng/mL | 1280 |
| O=C(O)c1ccc2c(c1)Oc1ccc(OCc3c(-c4c(Cl)cccc4Cl)noc3C3CC3)nc1C1(CC1)C2 | ng/mL | 1090 |
| CC1=Cc2ccc(C(=O)O)cc2Oc2ccc(OCc3c(-c4c(Cl)cccc4Cl)noc3C3CC3)nc21 | ng/mL | 2210 |
| O=C(O)c1ccc2c(c1)Oc1ccc(OCc3c(-c4c(Cl)cccc4Cl)noc3C3CC3)nc1CC2 | ng/mL | 3000 |
